- EXPERIMENT SUMMARY: Probe fluorescence ratio response to linolenic acid relative to ADIFAB2
- Type: binding
- CONDITION DESCRIPTION: response relative to ADIFAB2
RECORDED METRIC: DR/DR LNA
Write the value as a bare number.

Consider 38I 72G (protein, listed as Rattus norvegicus, PEPTIDE (1)...(131) wild-type rat intestinal fatty acid binding protein) AFDGTWKVDRNENYEKFMEKMGINVVKRKLGAHDNLKITITQEGNKFTVKESSNFRNIDVVFELGVDFAYSGADGTELTGTWTMEGNKLVGKFKRVDNGKELIAVREISGNELIQTYTYEGVEAKRIFKKE . Its measured DR/DR LNA is 0.701

Consider 49C1, 72A (protein, listed as Rattus norvegicus, PEPTIDE (1)...(131) wild-type rat intestinal fatty acid binding protein) AFDGTWKVDRNENYEKFMEKMGINVVKRKLGAHDNLKLTITQEGNKFTCKESSNFRNIDVVFELGVDFAYSAADGTELTGTWTMEGNKLVGKFKRVDNGKELIAVREISGNELIQTYTYEGVEAKRIFKKE . Its measured DR/DR LNA is −0.18

Consider 18K, 72A (protein, listed as Rattus norvegicus, PEPTIDE (1)...(131) wild-type rat intestinal fatty acid binding protein) AFDGTWKVDRNENYEKFKEKMGINVVKRKLGAHDNLKLTITQEGNKFTVKESSNFRNIDVVFELGVDFAYSAADGTELTGTWTMEGNKLVGKFKRVDNGKELIAVREISGNELIQTYTYEGVEAKRIFKKE . Its measured DR/DR LNA is 0.925
